molecular target: recombinant CD81-LEL (Homo sapiens, UniProt P60033); construct: the large extracellular loop of CD81 (CD81-LEL); GST; His; Shoshana Levy Lab, Stanford (gift); assay: SPR (Biacore T100) binding of additional ligands to immobilized CD81-LEL (Example 6); conditions: Table E, ligand 200 uM in PBS-1% DMSO
Sequence (P60033 113-201 limits assumed): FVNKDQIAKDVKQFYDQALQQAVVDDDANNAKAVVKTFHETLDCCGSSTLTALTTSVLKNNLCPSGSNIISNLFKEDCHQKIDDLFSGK
Lab note - cut at 9 RU for Binding (RU): rule met if strictly below, rule not met if not.

Here are 5 compounds together with their reported answers.
[[record]]
compound = "NC(=O)NC(=O)c1nccnc1C(=O)O"
label = "rule not met"

[[record]]
compound = "Cc1ccc(C)c(C(=O)CCC(=O)O)c1"
label = "rule met"

[[record]]
compound = "O=c1[nH]c2ccccc2n1C1=CCNCC1"
label = "rule met"

[[record]]
compound = "COc1cc(/N=N/c2ccccc2C(=O)O)ccc1O"
label = "rule met"

[[record]]
compound = "CC(C)Oc1ccc(C(=O)O)cc1"
label = "rule met"


# input For this compound, is Binding (RU) lower than 9 RU? COc1cccc(C2Nc3cccc4cccc(c34)N2)c1
# output rule met

# input Would you kindly verify if Binding (RU) of Cc1ccc(-c2cc(C(=O)O)c3ccccc3n2)c(C)c1 is strictly less than 9 RU?
# output rule not met

# input A record lists O=C(O)c1ccc(OCCOc2ccccc2)cc1 . Is its Binding (RU) below 9 RU?
# output rule met

# input Criterion: Binding (RU) strictly below 9 RU. Is it met by Cc1cc(C)c(N)c(C(=O)O)c1 ?
# output rule not met

# input Given CCCCCCC(C)OC(=O)c1ccccc1C(=O)O (stereo not drawn) , is recorded Binding (RU) strictly lower than 9 RU?
# output rule met

Hey, just so you know, these numbers are from patent US20150328329A1.
